system: CYP3A; assay: Oral midazolam pharmacokinetics (CYP3A phenotyping) in healthy volunteers at baseline, after inhibition and after induction; assay type: in vivo, human; settings: human, plasma, po, 1 mg, MDZ 1 mg oral; baseline
RESULT_TYPE: Cmax (ng/mL)
Your answer is read as ng/mL, so omit the unit and give the number.

Field Cmax (entry Cc1ncc2n1-c1ccc(Cl)cc1C(c1ccccc1F)=NC2 [MDZ, midazolam] ) reads 3.1
